# Assay Summary: Cycloheximide Counterscreen for Small Molecule Inhibitors of Shiga Toxin; also: read at 38.3 µM for the half of the compounds with a filed dose
# Assay Conditions: cell reporter, cycloheximide protein synthesis inhibition counterscreen; hits give high values
Screen size: about 300,000 compounds; about 37,000 (12%) were called active. The full list was thinned out, with actives kept by preference.
Outcome: Met for max response of at least 10%; Not met for anything lower.

{"columns": ["Molecule", "Label"],
 "data": [
  ["CCOC(=O)N1CCN(C(=O)COCc2cc(-c3ccc4c(c3)OCO4)on2)CC1", "Not met"],
  ["Cc1nn(C(C)(C)C)c(OC(=O)CC(C)C)c1S(=O)(=O)c1ccccc1", "Not met"],
  ["Cc1ccsc1/C=C1\\SC(N2CCOCC2)=NC1=O", "Met"],
  ["O=C(/C=C/c1cnc2ccccc2n1)NC1CCCCCC1", "Met"],
  ["O=C1CCN(CCc2ccccc2)CCN1CCOc1ccccc1", "Met"]
]}

Entry Cc1ccc(NS(=O)(=O)c2ccc3c(c2)NC(=O)CO3)cc1 : is its max response no less than 10%?
Not met
